Hey, just so you know, these numbers are from paper PMC10744269.

- Test system: HeLa (cervix epithelioid carcinoma cells)
- Method: MTT antiproliferative assay, HeLa
- Format: cell-based, human
Value kind: activity against HeLa cells (in words)

Would you please look over these solved cases?
Prompt: Notebook: pull reported activity against HeLa cells (in words) for HeLa (cervix epithelioid carcinoma cells), entry COc1ccc2nc(NC(=O)Nc3ccccc3)sc2c1 [Compound 6e, reference compound]
Response: significant activity

Prompt: Notebook: pull reported activity against HeLa cells (in words) for HeLa (cervix epithelioid carcinoma cells), entry CCNC(=O)Nc1nc2c(Br)cc(OC)cc2s1
Response: significant activity

Prompt: Notebook: pull reported activity against HeLa cells (in words) for HeLa (cervix epithelioid carcinoma cells), entry COc1ccc2nc(N(C)C(=O)c3ccccc3)sc2c1
Response: significant activity

Prompt: Notebook: pull reported activity against HeLa cells (in words) for HeLa (cervix epithelioid carcinoma cells), entry CCNC(=O)Nc1nc2c(Br)cc(C)cc2s1
Response: significant activity

Now examine the next entry.
Prompt: Notebook: pull reported activity against HeLa cells (in words) for HeLa (cervix epithelioid carcinoma cells), entry CCNC(=O)Nc1nc2c(Br)c(C)c(C)cc2s1
Response: significant activity

* * *

# pIC50 annotations
- Test system: murine macrophage cell line J774
- Method: MTT antiproliferative assay, J774
- Assay type: cell-based
- Experimental conditions: Mus musculus, 72 h after drug treatment, threshold 10 μM, read-out: IC50 J-774
pIC50: −log10 of the molar value.

Would you please look over these solved cases?
Prompt: Record request: pIC50 value, item CCNC(=O)Nc1nc2c(Br)c(C)c(C)cc2s1 [Compound 5d]
Response: < 5.00

Prompt: Record request: pIC50 value, item Cc1cc(Br)c2nc(NC(=O)Nc3ccccc3)sc2c1 [Compound 6b]
Response: < 5.00

Prompt: Record request: pIC50 value, item CCNC(=O)Nc1nc2c(Br)cc(C)cc2s1 [Compound 5b]
Response: < 5.00

Prompt: Record request: pIC50 value, item CCNC(=O)Nc1nc2ccc(C)cc2s1 [Compound 5a]
Response: < 5.00

Prompt: Record request: pIC50 value, item Cc1cc2nc(N(C)C(=O)c3ccccc3)sc2cc1C [Compound 3ca]
Response: < 5.00

Now examine the next entry.
Prompt: Record request: pIC50 value, item CCOC(=O)Nc1nc2ccc(C)cc2s1 [Compound 8a]
Response: 6.59

* * *

# melting point annotations

Would you please look over these solved cases?
Prompt: Record request: melting point value, item Cc1ccc2nc(NC(=O)Cc3ccccc3)sc2c1
Response: 190 to 191 °C

Prompt: Record request: melting point value, item CCOC(=O)Nc1nc2ccc(C)cc2s1
Response: 252.8 to 254 °C

Now examine the next entry.
Prompt: Record request: melting point value, item Cc1ccc2nc(NC(=O)Oc3ccccc3)sc2c1
Response: 251 to 253 °C
